# literature pull: Lysine-specific demethylase 5A (Homo sapiens, UniProt P29375) IC50

Some entries whose results are on file:
Cn1cnc(-c2nccc3c(O)nc(Oc4ccc5cnn(C)c5c4)nc23)c1	≤ 100 nM
Cc1cc(-c2ccncc2)cc(C2CCN(C(=O)c3cc(C(C)C)n[nH]3)C2)n1 (stereo not drawn)	0.37 nM
COc1cc(Cl)ccc1COc1ccnn1-c1cc(C(=O)O)ccn1	< 100 nM
CC(C)c1cc(C(=O)N2CCC(c3ccccn3)C2)[nH]n1 (stereo not drawn)	6.1 nM
Cn1cnc(-c2cc(C(=O)O)ccn2)c1-c1ccc(F)cc1	≤ 100 nM
Oc1nc(OCCc2ccc(Cl)c(Cl)c2)nc2cnccc12	1000 to 10000 nM

Exercise: Give recorded IC50 with Lysine-specific demethylase 5A (Homo sapiens, UniProt P29375) for the following compound: N#CCC(=O)N1CCC[C@@H](n2cc(Oc3nc(O)c4ccncc4n3)cn2)C1
Key: ≤ 100 nM

Exercise: Enter reported IC50 observed with Lysine-specific demethylase 5A (Homo sapiens, UniProt P29375) for O=C(O)c1ccnc2cc(-c3cc4ccccc4o3)[nH]c12
Key: 100 to 1000 nM

Exercise: Requested read-out IC50, target or system Lysine-specific demethylase 5A (Homo sapiens, UniProt P29375), entry Cc1ccccc1-c1cc2nccc(C(=O)O)c2[nH]1
Key: 100 to 1000 nM

* * *

pIC50: −log10 of the molar value.
// molecules with reported pIC50 on Lysine-specific demethylase 5A (Homo sapiens, UniProt P29375), multi-publication

O=C(O)c1ccnc(-n2nccc2OCc2ccc(C3CC3)cc2Cl)c1	6.00 to 7.00
Cn1cnc(-c2nccc3c(O)nc(OCCC4CC4)nc23)c1	≥ 7.00

Exercise: Item: O=C(O)c1ccnc2cc(Cc3ccc(Cl)c(OC(F)(F)F)c3)[nH]c12 Test system: Lysine-specific demethylase 5A (Homo sapiens, UniProt P29375) Read-out: pIC50 Value: ?
Key: 6.00 to 7.00

Exercise: # get_value(readout= pIC50, system= Lysine-specific demethylase 5A (Homo sapiens, UniProt P29375)) for Oc1nc(OCc2ccccc2C(F)(F)F)nc2cnccc12
Key: 5.00 to 6.00

Exercise: Write down the reported pIC50 of CC(F)c1cc(C(=O)N2CCC(NC(=O)C3CC3)C2)[nH]n1 (stereo not drawn) , test system: Lysine-specific demethylase 5A (Homo sapiens, UniProt P29375).
Key: 7.60

Exercise: Value wanted: pIC50 (Lysine-specific demethylase 5A (Homo sapiens, UniProt P29375)) of entry Cn1cnc(-c2nccc3c(O)nc(OCC(C)(C)O)nc23)c1
Key: 6.00 to 7.00

Exercise: Enter reported pIC50 observed with Lysine-specific demethylase 5A (Homo sapiens, UniProt P29375) for Cc1cc(I)ccc1COc1ccnn1-c1cc(C(=O)O)ccn1
Key: > 7.00

Exercise: Could you share what pIC50 was measured for Cc1cnn(-c2cc(C(=O)O)ccn2)c1OCc1ccc(F)cc1 , tested on Lysine-specific demethylase 5A (Homo sapiens, UniProt P29375)?
Key: > 7.00

Exercise: Checklist item: pIC50 tested on Lysine-specific demethylase 5A (Homo sapiens, UniProt P29375), entry CC(C)c1cc(C(=O)N2CCC(NC(=O)c3ccc(Cl)cc3)C2)[nH]n1 (stereo not drawn) , value?
Key: 9.12
